Tested on: NCI-H1341 complex spheroids, percent test/control
Assay: Anticancer human tumor NCI-H1341 cell line growth inhibition [AhR];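 further: spheroids exposed to agents for seven days before readout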
Details: second compound 0.316 µM; first compound 0.00316 µM; active compounds read low
Could you please mark true for values of viability, T/C below 80% and false for values at or above it?

[[record]]
compound = "Nc1ncn(C2CC(O)C(CO)O2)c(=O)n1 (stereo unspecified) + CC(CO)NC(=O)c1cc(-c2ccc(Cl)cc2)nn(-c2cnn(C)c2)c1=O"
class_name = "false"

[[record]]
compound = "Cn1ncnc1C1c2n[nH]c(=O)c3cc(F)cc(c23)NC1c1ccc(F)cc1 (stereo unspecified) + Cc1ccccc1N=Nc1ccc(NC(=O)c2ccnn2C)c(C)c1"
class_name = "false"

[[record]]
compound = "CC[C@@]1(O)C(=O)OCc2c1cc1n(c2=O)Cc2cc3c(CN(C)C)c(O)ccc3nc2-1 + CC(CO)NC(=O)c1cc(-c2ccc(Cl)cc2)nn(-c2cnn(C)c2)c1=O"
class_name = "false"

[[record]]
compound = "Nc1ncn(C2CC(O)C(CO)O2)c(=O)n1 (stereo unspecified) + Cc1cncc(-c2nc(NCCc3c[nH]c4ccccc34)c3ncn(C(C)C)c3n2)c1"
class_name = "true"

[[record]]
compound = "Cn1ncnc1C1c2n[nH]c(=O)c3cc(F)cc(c23)NC1c1ccc(F)cc1 (stereo unspecified) + CC(CO)NC(=O)c1cc(-c2ccc(Cl)cc2)nn(-c2cnn(C)c2)c1=O"
class_name = "false"

